These measurements were taken from PubChem BioAssay (NCI).

Hi there, I'd appreciate the recorded TGI for every entry that follows.
Tested on: DMS 114 small cell lung
Method Description: NCI tumour cell line growth inhibition, 48 h

Field: example entries. Status: answers known.
Molecule: Cc1c2ccncc2c(C)c2c1[nH]c1ccc(Oc3ccccc3)cc12
Readout Value: 3.35 µM
--
Molecule: CC1(C)Cc2c(oc3ncnc(N)c23)CS1
Readout Value: > 100 µM
--
Molecule: NS(=O)(=O)c1ccc(NC(=O)C2C(=O)C(=O)N(c3ccc(S(N)(=O)=O)cc3)C2=O)cc1 (configuration not stated)
Readout Value: > 100 µM

Look at each molecule and report its TGI.
1. c1ccc2c(c1)Cc1c(Cc3csc4ccccc34)ccc3cccc-2c13
2. N#CC1(C#N)C=CC(=C2OCC3CCCN23)C=C1 (configuration not stated)
3. C[C@]12CC[C@H](O)CC1=CC[C@@H]1C2CC[C@]2(C)C(=O)NC(=O)CC12 (some centres not stated)
4. O=C1NC2(CCCCC2)C(=O)N1CCN(CCCl)CCCl

Solution:
> 100 µM
> 100 µM
> 100 µM
248 µM

Look at each molecule and report its TGI.
1. COc1cc2c(oc(=O)c3cc4cc([Si](C)(C)C)oc4c(OC)c32)c2cccc(O)c12
2. O=C(N=c1nc(NC(=O)c2ccccc2)ss1)c1ccccc1
3. C[n+]1c2ccccc2c(CNCC(=O)O)c2ccccc21
4. Cc1ccc(/C=C/C(=O)c2sc(-n3nc(-c4ccccc4)cc3-c3ccccc3)nc2C)cc1
5. COc1ccc(/C=C/C(=O)c2c(-c3ccccc3)nn(C)c(=O)c2N2CCOCC2)cc1

Solution:
> 100 µM
90.3 µM
4.83 µM
> 100 µM
> 100 µM

---

System: RXF 393 renal
Method Description: NCI tumour cell line growth inhibition, 48 h
Quantity Kind: TGI (µM)
Answers are plain numbers, in µM.

Look at each compound and report its TGI.
1. C#C[C@@]1(O)[C@@H](CO)O[C@@H](n2cc(C(F)(F)F)c3c(N)ncnc32)[C@@H]1O
2. Nc1nc(Cl)c2ncn(Cc3cccc(CCl)c3)c2n1

Solution:
1: 2.74; 2: 10.5

---

Test system: HCC-2998 colon
Method Description: NCI tumour cell line growth inhibition, 48 h
Quantity Kind: TGI

Field: example entries. Status: answers known.
Compound: O=C(Nc1cc(Cl)ccc1O)c1ccccc1Nc1ccnc(C(F)(F)F)c1
Quantity Kind: TGI
Readout Value: 7.41 µM

Compound: CO[C@@]12C[C@@H](C)[C@]34O[C@H]3C[C@]3(C)O[C@]43CC1=C(C)C(=O)O2
Quantity Kind: TGI
Readout Value: > 100 µM

Compound: Cc1cn(Cc2cccc(C3=NCCCN3)c2)c(=O)n(Cc2cccc(C3=NCCCN3)c2)c1=O
Quantity Kind: TGI
Readout Value: > 100 µM

Compound: CC(=O)/C(Br)=C/c1ccc(Br)o1
Quantity Kind: TGI
Readout Value: 36.7 µM

// switching to the query compound
Problem: Return reported TGI. Input compound: O=C(CC1C(=O)Nc2ccccc2S1(=O)=O)Nc1ccc(Cl)cc1 (stereo not given)
Solution: 39.6 µM

---

System: SK-MEL-28 melanoma
Method Description: NCI tumour cell line growth inhibition, 48 h
Quantity Kind: TGI (µM)
Answers are plain numbers, in µM.

Field: example entries. Status: answers known.
Molecule: CSc1ccc(NC(=O)C2c3[nH]c4ccccc4c3C3CCC(C(C)(C)C)CC3C2C(=O)O)cc1 (stereo not given)
TGI (µM): 60.5

Molecule: Cc1ccc(N=C2N=C(N3CC(C)OC(C)C3)c3ccccc32)cc1 (stereo not given)
TGI (µM): 87.2

Problem: Return reported TGI. Input molecule: Nc1cccc(OCC2CCCN3CCCCC23)c1 (stereo not given)
Solution: 35.7

---

System: MDA-MB-231 breast
Method Description: NCI tumour cell line growth inhibition, 48 h
Quantity Kind: TGI

Molecule: COc1ccc2c(c1)/C(=C\c1c(-c3cc(OC)ccc3OC)nc3sccn13)C(=O)N2
Target Of Assay: MDA-MB-231 breast
TGI: 14.2 µM

Look at each molecule and report its TGI.
1. COc1c(C(C)(C)C)cc(CC2C(=O)C=CC2=O)cc1C(C)(C)C
2. O=C(COc1ccccc1)N(C(=O)N1CCN(c2ccccc2)CC1)S(=O)(=O)c1ccccc1

Solution:
36.5 µM
> 100 µM

---

Hi there, I'd appreciate the recorded TGI for every entry that follows.
System: K-562 leukemia
Method Description: NCI tumour cell line growth inhibition, 48 h

Field: example entries. Status: answers known.
Molecule: CC(=O)Oc1c2ccsc2c(OC(C)=O)c2ccsc12
Quantity Kind: TGI
Readout Value: > 100 µM
--
Molecule: C[n+]1c2ccccc2c(CNCC(=O)O)c2ccccc21
Quantity Kind: TGI
Readout Value: 11.1 µM
--
Molecule: CC(C)(C)OC(=O)[C@@H]1ON2O[C@H](OC3CCCC3(c3ccccc3)c3ccccc3)C[C@H]3OC(=O)[C@@H]1[C@H]32 (some centres undefined)
Quantity Kind: TGI
Readout Value: > 100 µM

Problem: Return reported TGI. Input molecule: CCOC(=O)c1c(N2CCCC2)[nH]c(=O)c(C(c2ccc(Cl)c([N+](=O)[O-])c2)c2c(O)c(C(=O)OCC)c(N3CCCC3)[nH]c2=O)c1O
Solution: > 100 µM

---

Hi there, I'd appreciate the recorded GI50 for every entry that follows.
Tested on: LOX IMVI melanoma
Method Description: NCI tumour cell line growth inhibition, 48 h

Field: example entries. Status: answers known.
Molecule: Cn1c(=O)c(Oc2ccc(F)cc2F)cc2cnc(N[C@@H]3CCOC3)nc21
Quantity Kind: GI50
Readout Value: > 25 µM
--
Molecule: CNC(=O)c1c(F)cccc1Nc1nc(Nc2cc3c(cc2OC)CCN3C(=O)CN(C)C)nc2[nH]ccc12
Quantity Kind: GI50
Readout Value: 2.4 µM
--
Molecule: COc1ccc(-c2cn(-c3ccc(OC)c(OC)c3)c(=O)[nH]2)cc1
Quantity Kind: GI50
Readout Value: > 100 µM
--
Molecule: O=C1C=C(OCC=C(C(F)(F)F)C(F)(F)F)c2ccccc2C1=O
Quantity Kind: GI50
Readout Value: 1.56 µM
--
Molecule: Cc1nc2sc3c(N)ncnc3c2c(C)c1C
Quantity Kind: GI50
Readout Value: > 25 µM

Look at each molecule and report its GI50.
1. COc1ccc(-c2cc(-c3ccc(Cl)cc3)nc(NCCCCNc3ccnc4cc(Cl)ccc34)n2)cc1
2. COc1cc2c3c(n(CCCNCCCNCCN)c(=O)c2cc1OC)-c1cc2c(cc1C3=O)OCO2

Solution:
1: 1.7 µM; 2: 13.1 µM

---

Tested on: SF-268 CNS
Method Description: NCI tumour cell line growth inhibition, 48 h
Hi there, I'd appreciate the recorded TGI for every entry that follows.
Numbers only, in µM.

Compound: COc1cc2c(c(OC)c1OC)-c1ccc(SC)c(=O)cc1[C@@H](NC(=O)C(F)(F)F)CC2
Target Of Assay: SF-268 CNS
Readout Unit: µM
Readout Value: 63.9

// switching to the query compound
Problem: Return reported TGI. Input compound: COC1=C2CC(C)CC(OC)C(OC(=O)CN)[C@H](C)/C=C(\C)C(OC(N)=O)C(OC)/C=C\C=C(/C)C(=O)NC(=CC1=O)C2=O (stereo not given in full)
Solution: 16.4

---

Tested on: SK-OV-3 ovarian
Method Description: NCI tumour cell line growth inhibition, 48 h; in the data active = GI50 below about 0.43 µM; inactive = the rest
// one of True (active), False (inactive), no free text

Past entries and their recorded results:
Compound: Cn1c(=O)c(Oc2ccc(F)cc2F)cc2cnc(N[C@@H]3CCOC3)nc21
Target Of Assay: SK-OV-3 ovarian
Label Class: False

Compound: C#CC1(O)C(COP(=O)(O)OCC2OC(n3cc(F)c(=O)[nH]c3=O)CC2O)OC(n2ccc(N)nc2=O)C1O (stereo not given)
Target Of Assay: SK-OV-3 ovarian
Label Class: False

Compound: COCCc1n(Cc2ccc3ccccc3c2)c2ccccc2[n+]1Cc1ccc2ccccc2c1
Target Of Assay: SK-OV-3 ovarian
Label Class: False

Next compound, please.
Problem: What was the test verdict on O=C(Nc1cc(Cl)cc(Cl)c1)c1cccc(NC2=C(Cl)C(=O)N(Cc3ccccc3)C2=O)c1 ?
Solution: False

---

Tested on: HOP-92 NSCLC
Method Description: NCI tumour cell line growth inhibition, 48 h; in the data active = GI50 below about 0.43 µM; inactive = the rest
// one of active, inactive, no free text

Molecule: COc1ccc(-c2cn(-c3ccc(OC)c(OC)c3)c(=O)[nH]2)cc1
Label Class: inactive
//
Molecule: Clc1cccc(CNc2c3ccccc3nc3ccccc23)c1
Label Class: inactive
//
Molecule: C#C[C@@]1(O)[C@@H](CO)O[C@@H](n2cc(C(F)(F)F)c3c(N)ncnc32)[C@@H]1O
Label Class: inactive

Problem: What was the test verdict on COc1ccccc1[As]=[As]c1ccccc1OC (centres undefined) ?
Solution: active

Problem: What was the test verdict on O=C(NCCOCCOCCOCCNC(=O)c1cc2c(o1)C(=O)c1ccccc1C2=O)NC12CC3CC(CC(C3)C1)C2 ?
Solution: inactive

Problem: What was the test verdict on CS(=O)(=O)c1cccc(Nc2ncc3cc(-c4ccccc4Cl)ccc3n2)c1 ?
Solution: inactive

Problem: What was the test verdict on CCOC(=O)c1c(C)nc2c(c1N)/C(=C/c1ccccn1)C(=O)N2Cc1ccccc1 ?
Solution: inactive

Problem: What was the test verdict on CC(=O)/C(Br)=C/c1ccc(Br)o1 ?
Solution: inactive

Problem: What was the test verdict on O=C(Nc1cc(Cl)ccc1O)c1cccc(Nc2ccnc(C(F)(F)F)c2)c1 ?
Solution: inactive
